Answer each item with its documented protein stability index.
# System: Saccharomyces cerevisiae
# test-method-notes: protein stability index of tFT-peptide fusion (C-terminal peptide) (PSI (0-1 scale)); higher = more stable (slower turnover)
# settings: genetic background: cdc34-1; temperature: 37 C
Lab note: write the figure by itself, no unit.

Input: Record request: protein stability index value, item WLPFFPLSLRGV
Output: 0.321

Input: Also need RLSTPFTVNHFI , thanks.
Output: 0.613

Input: Please give the result for CILYLSWIIFRA too.
Output: 0.161

Input: What do you have for GVYFIGISRCVC ?
Output: 0.559

Input: Also, TLKRCFRWCRTT please.
Output: 0.492

Input: Same again, this time with RLRHPPRLSTLC
Output: 0.635

Input: Ok, now YARFWYSKAFIC
Output: 0.455

Input: What about this sequence? RFLPYLPTPLSP
Output: 0.664

Input: One more sequence: SPSTPQALSNFS
Output: 0.679

Input: How about CLCLICFLCWFA ?
Output: 0.475

Input: Item: FRLCQRPVFLLS
Output: 0.586

Input: Another: LNTVALIRIVVS
Output: 0.0601

Input: Next: LRSLLIIYLLIF
Output: 0.256

Input: Similarly, LFLSAFFYLLVW ?
Output: 0.199

Input: And the next one, LVSCGNFLVFCF ?
Output: 0.299

Input: Lookup GVCWCVLFVVGC
Output: 0.312

Input: Same lookup for FSFSFWALLWFP , please.
Output: 0.495

Input: Likewise for PISNMSIILLFL ?
Output: 0.495

Input: Record: ILGQSVIMRIKM
Output: 0.673

---

# Tested on: Saccharomyces cerevisiae;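 note: PSI is a weighted mean of sequencing reads over stability bins, variants kept only with over 10 reads, mCherry proximal and sfGFP distal, peptide attached via GGGS linker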
# test-method-notes: protein stability index of tFT-peptide fusion (C-terminal peptide) (PSI (0-1 scale)); higher = more stable (slower turnover)
# settings: genetic background: doa10 deletion; temperature: 30 C
Please respond with reported protein stability index for every item in the list.
Note: the reply should be a number with no unit written.

Input: Notebook entry, Saccharomyces cerevisiae assay: protein stability index of IPRSCRIRLAVL = ?
Output: 0.254

Input: Now this one: FVLLTFLFFWQF
Output: 0.287

Input: Try this sequence next: KLKDLTRIKIFR
Output: 0.643

Input: Another sequence: LRNYKCLRLLIC
Output: 0.0736

Input: // query: LRCRAATSRTVS
Output: 0.391

Input: Now this one: GEGISCLLRRLT
Output: 0.263

Input: Consider next the sequence LSSRGGRCRRLV in the same way.
Output: 0.321

Input: What do you get for LCLPLYIRILSF ?
Output: 0.161

Input: LPILFPAALRLY , same question.
Output: 0.267

Input: Entry VTRLLLSRIDCY please
Output: 0.346

Input: Another sequence to check: FALFCFVIFMSR
Output: 0.277

Input: Would you mind doing TDSSWEVSLMVG as well?
Output: 0.605

Input: Ok, now KRARVIWKLVVV
Output: 0.23

Input: Ok, now IRSRGLLIRWLS
Output: 0.0894

Input: Another sequence: FYFMGFFFGLGM
Output: 0.481

Input: Continue with LLLHFMFSIFWF
Output: 0.378

Input: Would you mind doing FACLTPFCLCLT as well?
Output: 0.325

Input: Then what about the sequence MYESIRILVNKV ?
Output: 0.226

Input: Also GKGVFGGLFFLV ?
Output: 0.182

Input: Entry LVSCGNFLVFCF please
Output: 0.211

Input: Item: WCGLFCRSVFVV
Output: 0.0996

Input: Also check TKKGQTRPSRTD
Output: 0.644

Input: // query: LLCLCSLPVFAS
Output: 0.223

Input: For QVLISLYVHGYF then?
Output: 0.388

Input: Same lookup for WQGLSGSPILVI , please.
Output: 0.206

Input: And what about the sequence FHLFIRRSAVIF ?
Output: 0.349

Input: Same read-out for VLLCASPMLAVV ?
Output: 0.249

Input: Same question for IFLGFGPLFGRL please.
Output: 0.726

Input: Subsequent entry: FGVRRSFVVFVV
Output: 0.0834

Input: Subsequent entry: YVLLDFFFFFLV
Output: 0.211

Input: And then GFVSLFRLFIRL , what is it?
Output: 0.405

Input: And PWWDALLRARVC ?
Output: 0.103

Input: Thanks! And VFLYVYAVWFLV ?
Output: 0.11

Input: One more sequence: PFPRCRLIFFFM
Output: 0.106

Input: Also KCVVMFFLRSVS , if possible.
Output: 0.396

Input: Ok, now SYFASLLDLFTA
Output: 0.669

Input: Now consider RWVFAGVGLFVG .
Output: 0.353

Input: What do you get for GVCLGFICVGFC ?
Output: 0.343

Input: And then PPGSPPGSLRPT , what is it?
Output: 0.662

Input: Subsequent entry: GFLWFCGVPVGW
Output: 0.613

Input: Try WISDRCPSVLCY next.
Output: 0.143

Input: # iterate: WVSFFILYCVYR
Output: 0.23

Input: Now consider VCCYILFFLFPV .
Output: 0.322

Input: Same lookup for YSMLGKLVRLVT , please.
Output: 0.164

Input: Now give it for GVYFIGISRCVC too.
Output: 0.175

Input: Could you do the same for GPRRARLPNFLA , please?
Output: 0.0795

Input: Record: PLPSFLYFILLR
Output: 0.524

Input: Consider next the sequence YRNVLLVLNYWS in the same way.
Output: 0.518

Input: What do we get for SNFDVRRLLVIQ ?
Output: 0.29

Input: Could you do the same for SFLRVRSLISCS , please?
Output: 0.168

Input: And what about the sequence FVRGWGIVFSLA ?
Output: 0.225

Input: Now this one: VYTVGFVCWLVY
Output: 0.185

Input: Same question for FVLWYFCCVGCM please.
Output: 0.196

Input: Then DLRRYRTLIPCK ?
Output: 0.228

Input: Let us now turn to SILVSIFILAMQ
Output: 0.199

Input: // same read-out, input: KIKKLKNRRKLV
Output: 0.0918

Input: Next: AQCRGGGLSGVG
Output: 0.57

Input: Entry VYQAFIFRMSLF please
Output: 0.147

Input: Here is the next sequence: SMGVLITYLVQV
Output: 0.25

Input: Now give it for ALFLLWVVMHDV too.
Output: 0.195

Input: Cool, now FLPSLSLPLLLF
Output: 0.376

Input: Subsequent entry: FGPVLLVSFLFS
Output: 0.19

Input: Now this one: FFPSFGLFLCPV
Output: 0.381

Input: Now consider RLFIIYLLNIQG .
Output: 0.263

Input: Also GCWRVELLVFMC ?
Output: 0.053

Input: Try WSWCLDVVCFTS next.
Output: 0.446

Input: Also need LVFAFFLLSFFI , thanks.
Output: 0.481

Input: What do you get for SFIFFVSCFFIF ?
Output: 0.263

Input: Entry WFFRCLFLLSLF please
Output: 0.188

Input: Now consider IFAVLVSGSFFF and answer again.
Output: 0.318

Input: Param item: LLRIFLPLLYLL
Output: 0.218

Input: Repeat with RKKIRTYINENV
Output: 0.271

Input: Same again, this time with CILYLSWIIFRA
Output: 0.213

Input: Queued: FVGLFEYILLFV
Output: 0.263

Input: Field entry: CLLDVVMVVERG
Output: 0.364

Input: One more sequence: GGRWRRRGFFFS
Output: 0.627

Input: How about this sequence: VTMTPSLCFSYS
Output: 0.364

Input: Same thing, different sequence: SWMFKLCIQWNV
Output: 0.467

Input: Now consider RIVSGVVLLVFV and answer again.
Output: 0.206

Input: And VRFLLSLCCALL ?
Output: 0.544

Input: Moving on to the next sequence: YNKIRNNEKKMT
Output: 0.19

Input: Now the sequence ILRIYIPRWRRQ
Output: 0.119
